test: Cmax in mouse at 50 mg/kg, sc; format: ADME, organism-based; set-up: dose 50 mg/kg, route sc; conditions: in vivo
quantityMeasured: Cmax (µM)

testsmiles=NS(=O)(=O)c1nccc(-c2ccc(CO)cc2)c1-c1nnn[nH]1 quantitymeasured=Cmax numericresult=69.1

====

assay: Cmax in mouse at 10 mg/kg, sc; format: ADME, organism-based; design: dose 10 mg/kg, route sc; conditions: in vivo
quantityMeasured: Cmax

testsmiles=NS(=O)(=O)c1nccc(-c2ccc(CO)cc2)c1-c1nnn[nH]1 quantitymeasured=Cmax result="13.4 µM"

====

assay: Plasma protein binding in human assessed as unbound fraction; type: ADME, cell-free
quantityMeasured: fraction unbound

testsmiles=NS(=O)(=O)c1nccc(-c2ccc(CO)cc2)c1-c1nnn[nH]1 quantitymeasured="fraction unbound" result=0.23

====

assay: AUC in mouse at 5 mg/kg, iv; format: ADME, organism-based; parameters: dose 5 mg/kg, route iv; settings: in vivo
quantityMeasured: AUC (µM·h)

testsmiles=NS(=O)(=O)c1nccc(-c2ccc(CO)cc2)c1-c1nnn[nH]1 unitsofmeasure=µM·h numericresult=27.1

====

test: AUC in mouse at 10 mg/kg, sc; format: ADME, organism-based; parameters: dose 10 mg/kg, route sc; settings: in vivo
quantityMeasured: AUC

testsmiles=NS(=O)(=O)c1nccc(-c2ccc(CO)cc2)c1-c1nnn[nH]1 result="27.4 µM·h"

====

system: Serratia marcescens; experiment: Potentiation of imipenem-induced antibacterial activity against IMP-1 expressing Serratia marcescens assessed as imipenem MIC incubated for 22 to 24 hrs (reference value: 16 ug/ml); assay type: functional; settings: time 22-24 hrs
quantityMeasured: MITC95 (µM)

testsmiles=NS(=O)(=O)c1ccnc(-c2ccc(CO)cc2)c1-c1nn[nH]n1 unitsofmeasure=µM numericresult=37
testsmiles=NS(=O)(=O)c1cccc(-c2ccncc2)c1-c1nn[nH]n1 unitsofmeasure=µM numericresult=9.37
testsmiles=NS(=O)(=O)c1nccc(-c2ccc(CO)cc2)c1-c1nn[nH]n1 unitsofmeasure=µM numericresult=5.19
testsmiles=NS(=O)(=O)c1cccc(-c2ccnc(CO)c2)c1-c1nn[nH]n1 unitsofmeasure=µM numericresult=50
testsmiles=Cc1ccc(-c2cccc(S(N)(=O)=O)c2-c2nnn[nH]2)cc1 unitsofmeasure=µM numericresult=13.8
testsmiles=NS(=O)(=O)c1cccc(-c2cccnc2)c1-c1nn[nH]n1 unitsofmeasure=µM numericresult=50

====

test: AUC in mouse at 50 mg/kg, sc; format: ADME, organism-based; parameters: dose 50 mg/kg, route sc; settings: in vivo
quantityMeasured: AUC (µM·h)

testsmiles=NS(=O)(=O)c1nccc(-c2ccc(CO)cc2)c1-c1nnn[nH]1 quantitymeasured=AUC unitsofmeasure=µM·h numericresult=111

====

experiment: Inhibition of GST-tagged bacterial beta-lactamase […] expressed in Escherichia coli BL21(DE3) using CCF2-FA as substrate by fluorescence assay; design: species or system Bacteria
Listed here are compounds together with their documented log10(IC50).
quantityMeasured: log10(IC50) (log10 of the value in nM)

compound="O=C(O)COc1ccc2c(c1)CCN(C(=O)C(CS)CCc1ccccc1)C2C(=O)O (centres undefined)" numericresult=-0.61
compound=Cc1ccc(-c2cccc(S(=O)(=O)O)c2-c2nnn[nH]2)cc1 numericresult=3.70
compound=Nc1cc(-c2nnn[nH]2)c(S(N)(=O)=O)cc1S(N)(=O)=O numericresult=0.52
compound=CCCc1c(OCc2cccc(-c3ccccc3-c3nnn[nH]3)c2)ccc(C(C)=O)c1O numericresult=1.54
compound=c1ccc(-c2ccccc2-c2nn[nH]n2)cc1 numericresult=1.64
compound=NS(=O)(=O)c1ccnc(-c2ccc(CO)cc2)c1-c1nn[nH]n1 numericresult=1.56
compound=NS(=O)(=O)c1cccc(-c2ccc(CO)cc2)c1-c1nn[nH]n1 numericresult=0.38
compound="CC(CS)C(=O)N1CCc2ccccc2C1C(=O)O (centres undefined)" numericresult=0.54
compound=CNS(=O)(=O)c1cccc(-c2ccc(C)cc2)c1-c1nnn[nH]1 numericresult=4.20
compound=CCCCc1nc2ccc(O)cc2c(=O)n1Cc1ccc(-c2ccccc2-c2nnn[nH]2)cc1 numericresult=1.72
compound=NS(=O)(=O)c1cncc(-c2ccc(CO)cc2)c1-c1nn[nH]n1 numericresult=1.32
compound=Cc1ccc(-c2cccc(C(=O)O)c2-c2nnn[nH]2)cc1 numericresult=3.50
compound=OCc1ccc(-c2cccc(O)c2-c2nnn[nH]2)cc1 numericresult=2.85
compound=NS(=O)(=O)c1cccc(-c2ccncc2)c1-c1nn[nH]n1 numericresult=1.56
compound=NS(=O)(=O)c1cccc(-c2ccccn2)c1-c1nn[nH]n1 numericresult=0.48
compound=NS(=O)(=O)c1cccc(-c2cccnc2)c1-c1nn[nH]n1 numericresult=1.38
compound=NS(=O)(=O)c1nccc(-c2ccccc2)c1-c1nn[nH]n1 numericresult=1.54
compound=NS(=O)(=O)c1nccc(-c2ccc(CO)cc2)c1-c1nn[nH]n1 numericresult=1.54
